tested on: Digitaria sanguinalis; experiment: Herbicidal activity against Digitaria sanguinalis (hairy crabgrass) assessed as inhibition of fresh weed plant weights at 600 g ai/ha using pre-emergence treatment protocol under greenhouse conditions relative to untreated control; format: functional
parameter measured: inhibition at 600 g/ha (%)
Give bare numbers, in %.

                                   compound          system_tested  quantitative_readout
0  Cc1nn(CC(F)(F)F)c(CS(=O)(=O)C2=NOC(C)(C)C2)c1Br  Digitaria sanguinalis                    79

Hello, I would appreciate it if you could give inhibition at 600 g/ha for each entry below.
1. CCc1cccc(C)c1N(C(=O)CCl)C(C)COC (configuration not stated) [METOLACHOR]
2. Cc1nn(CC(F)(F)F)c(CS(=O)(=O)C2=NOC(C)(C)C2)c1I
3. Cc1nn(CC(F)(F)F)c(CS(=O)(=O)C2=NOC(C)(C)C2)c1Cl
4. Cc1nn(CC(F)(F)F)c(CSC2=NOC(C)(C)C2)c1Br
5. Cc1nn(CC(F)(F)F)c(CSC2=NOC(C)(C)C2)c1I
6. Cc1nn(CC(F)(F)F)c(CSC2=NOC(C)(C)C2)c1Cl

90
90
100
74
54
54

---

tested on: Portulaca oleracea; test: Herbicidal activity against Portulaca oleracea assessed as inhibition of root growth at […] measured 7 days post treatment; assay type: functional; design: dose or concentration left out as unconfirmed; conditions: 168 h, read-out: GI
Hi there, I'd appreciate the recorded inhibition of growth for every entry that follows.
Numbers only, in %.

Worked set:
>>> df
                                   molecule  quantitative_readout
0  Cc1nn(CC(F)(F)F)c(CS(=O)(=O)C2=NOC(C)(C)C2)c1Br                    80
1  CCc1cccc(C)c1N(C(=O)CCl)C(C)COC (configuration not stated)                    74
2  Cc1nn(CC(F)(F)F)c(CS(=O)(=O)C2=NOC(C)(C)C2)c1Cl                    63
3  Cc1nn(CC(F)(F)F)c(CS(=O)(=O)C2=NOC(C)(C)C2)c1I                    75
4   Cc1nn(CC(F)(F)F)c(CSC2=NOC(C)(C)C2)c1Cl                    75

For each listed entry, give its inhibition of growth.
1. Cc1nn(CC(F)(F)F)c(CSC2=NOC(C)(C)C2)c1Br
2. Cc1nn(CC(F)(F)F)c(CSC2=NOC(C)(C)C2)c1I

80
81
